Hi there, I'd appreciate the recorded IC50 for every entry that follows.
Target: Human recombinant MMP-13 (Homo sapiens)
Construct: made in house; host or cells: baculovirus / insect cells
Experiment: In vitro MMP inhibition, IC50 determination (fluorogenic substrate I)
Format: biochemical
Settings: value outside parentheses (Ki in parenthesis)
Give bare numbers, in nM.

| SMILES_CODE | MEASURE | RESULT_UNITS | VALUE_REPORTED |
| --- | --- | --- | --- |
| CC(C)(COc1ccc(S(=O)(=O)C2(C(=O)NO)CCOCC2)cc1)CSc1ccc(OC(F)(F)F)cc1 | IC50 | nM | 500 |
| C[C@@H](COc1ccc(S(=O)(=O)C2(C(=O)NO)CCOCC2)cc1)NC(=O)c1ccc(N(C)C)cc1 | IC50 | nM | 305 |
| O=C(NCCCOc1ccc(S(=O)(=O)C2(C(=O)NO)CCOCC2)cc1)c1cccc2ccccc12 | IC50 | nM | 17 |

Report IC50 for `O=C(NO)C1(S(=O)(=O)c2ccc(OCCCO)cc2)CCOCC1` please. 7

###

Biological target: Human recombinant MMP-13 (Homo sapiens, UniProt P45452)
Construct: made in house; host or cells: baculovirus / insect cells
Assay: In vitro MMP inhibition, IC50 determination (fluorogenic substrate I)
Format: biochemical
Conditions: value outside parenthesis
Protocol: Several hydroxamates and salts thereof were analyzed in in vitro assays to determine their ability to inhibit the MMP cleavage of peptide substrates. Inhibition (Ki) and IC50 constants were calculated from the assayed hydroxamate-MMP interactions. […] The assays from which the IC50 determinations were made were performed as follows. […] The assayed hydroxamate samples were, incubated in Microfluorrm White Plates (Dynatech, Chantilly, VA) and analyzed on a Perkin Elmer L550 plate reader (Norwalk, Conn.). […]
MEASURE: IC50 (nM)
Numbers only, in nM.

For each listed entry, give its IC50.
1. CC(C)c1ccc(C(=O)NNC(=O)CCCOc2ccc(S(=O)(=O)C3(C(=O)NO)CCOCC3)cc2)cc1
2. O=C(NO)C1(S(=O)(=O)c2ccc(OCCCSc3nc4ccccc4s3)cc2)CCOCC1
3. O=C1N(CCCOc2ccc(S(=O)(=O)C3(C(=O)NO)CCOCC3)cc2)CCN1c1ccc(F)cc1
4. NC(=O)c1cccc(-c2noc(CCCOc3ccc(S(=O)(=O)C4(C(=O)NO)CCN(C5CC5)CC4)cc3)n2)c1 [Example 129]

3
0.8
7.5
1.9

For each listed entry, give its IC50.
1. Cc1cccc(-c2noc(CCCOc3ccc(S(=O)(=O)C4(C(=O)NO)CCOCC4)cc3)n2)c1
2. CCCCc1ccc(-c2noc(CCCOc3ccc(S(=O)(=O)C4(C(=O)NO)CCOCC4)cc3)n2)c(C)c1
3. O=C(NCCCOc1ccc(S(=O)(=O)C2(C(=O)NO)CCN(C3CC3)CC2)cc1)c1ccc(OC(F)(F)F)cc1

[1.2, 21, 0.6]

###

Hi there, I'd appreciate the recorded pIC50 for every entry that follows.
Molecular target: Human recombinant MMP-13 (Homo sapiens)
Construct: made in house; host or cells: baculovirus / insect cells
Assay: In vitro MMP inhibition, IC50 determination (fluorogenic substrate I)
Type: biochemical
Details: value outside parentheses
Procedure: Several hydroxamates and salts thereof were analyzed in in vitro assays to determine their ability to inhibit the MMP cleavage of peptide substrates. Inhibition (Ki) and IC50 constants were calculated from the assayed hydroxamate-MMP interactions. […] The assays from which the IC50 determinations were made were performed as follows. […] The assayed hydroxamate samples were, incubated in Microfluorrm White Plates (Dynatech, Chantilly, VA) and analyzed on a Perkin Elmer L550 plate reader (Norwalk, Conn.). […]
Give bare numbers, as −log10 of the molar value.

For each listed entry, give its pIC50.
1. CN(C)c1cccc(CCCOc2ccc(S(=O)(=O)C3(C(=O)NO)CCN(C4CC4)CC3)cc2)c1
2. O=C(NCCOc1ccc(S(=O)(=O)C2(C(=O)NO)CCOCC2)cc1)c1ccc(-c2cc(C(F)(F)F)ccc2Cl)o1
3. O=C(Cc1ccsc1)NCCOc1ccc(S(=O)(=O)C2(C(=O)NO)CCOCC2)cc1
4. O=C(NO)C1(S(=O)(=O)c2ccc(OCCCc3cccc(-n4ccnc4)c3)cc2)CCOCC1
5. CC(=O)c1cccc(OCCOc2ccc(S(=O)(=O)C3(C(=O)NO)CCOCC3)cc2)c1
6. O=C(NO)C1(S(=O)(=O)c2ccc(OCCCc3cccc(-c4cccs4)c3)cc2)CCOCC1
7. O=C(NCCSc1ccc(S(=O)(=O)C2(C(=O)NO)CCOCC2)cc1)c1ccc(-c2ccc(O)cc2)cc1
8. O=C(NO)C1(S(=O)(=O)c2ccc(OCCCn3nnc(-c4ccc(OC(F)(F)F)cc4)n3)cc2)CCOCC1

1: 8.18; 2: 7.87; 3: 8.89; 4: 9.15; 5: 8.49; 6: 9.00; 7: 8.42; 8: 9.18

For each listed entry, give its pIC50.
1. O=C(NO)C1(S(=O)(=O)c2ccc(OCCCOCc3cccnc3)cc2)CCOCC1
2. O=C(NCCCOc1ccc(S(=O)(=O)C2(C(=O)NO)CCN(C3CC3)CC2)cc1)C1C2CC3CC(C2)CC1C3 (stereo not drawn)
3. O=C(NO)C1(S(=O)(=O)c2ccc(OCCCS(=O)(=O)NC34CC5CC(CC(C5)C3)C4)cc2)CCOCC1
4. N#Cc1ccc(-c2cccc(CCCOc3ccc(S(=O)(=O)C4(C(=O)NO)CCOCC4)cc3)c2)cc1
5. CC(C)(C)c1cccc(NC(=O)CCCOc2ccc(S(=O)(=O)C3(C(=O)NO)CCOCC3)cc2)c1
6. NCc1ccc(OCCOc2ccc(S(=O)(=O)C3(C(=O)NO)CCOCC3)cc2)cc1

1: 9.21; 2: 7.94; 3: 8.37; 4: 9.52; 5: 8.33; 6: 8.61

Request body: readout pIC50, system Human recombinant MMP-13 (Homo sapiens), query `O=C(NO)C1(S(=O)(=O)c2ccc(OCCCc3cccc(-c4coc5ccccc45)c3)cc2)CCOCC1` . Return the value. 7.79

###

Biological target: Human recombinant MMP-14 (Homo sapiens)
Construct: The catalytic domain enzyme was expressed in E. coli inclusion bodies, solubilized in urea; made in house
Assay: In vitro MMP inhibition, Ki determination (fluorogenic substrate II)
Type: biochemical
Conditions: substrate (II) 4 μM, 1 hr room temperature; apparent Ki, values in parenthesis
pKi: −log10 of the molar value. Where a name gives a salt, the structure may show the parent alone.
Hi there, I'd appreciate the recorded pKi for every entry that follows.

| COMPOUND | ASSAY_TARGET | VALUE_REPORTED |
| --- | --- | --- |
| COCCN1CCC(C(=O)NO)(S(=O)(=O)c2ccc(OCCc3cccc(-c4ccccc4)c3)cc2)CC1 [Example 45] | Human recombinant MMP-14 (Homo sapiens) | < 5.00 |
| O=C(NO)C1(S(=O)(=O)c2ccc(OCCCn3nnc(-c4ccc(OC(F)(F)F)cc4)n3)cc2)CCN(CC2CC2)CC1 [Example 53] | Human recombinant MMP-14 (Homo sapiens) | < 5.00 |

For each listed entry, give its pKi.
1. O=C(NO)C1(S(=O)(=O)c2ccc(OCCCc3cccc(-c4ccc(F)cc4)c3)cc2)CCOCC1 [Example 39]
2. NC(=O)c1cccc(OCCOc2ccc(S(=O)(=O)C3(C(=O)NO)CCOCC3)cc2)c1 [Example 54]
3. O=C(NO)C1(S(=O)(=O)c2ccc(OCCc3cccc(-c4ccccn4)c3)cc2)CCOCC1 [Example 40]

["< 5.00", 5.39, "< 5.00"]

For each listed entry, give its pKi.
1. O=C(NO)C1(S(=O)(=O)c2ccc(OCCCn3nnc(-c4ccc(OC(F)(F)F)cc4)n3)cc2)CCN(C2CC2)CC1 [Example 49]
2. O=C(NO)C1(S(=O)(=O)c2ccc(OCCCc3nc(-c4ccc(OC(F)(F)F)cc4)no3)cc2)CCOCC1 [Example 31]
3. O=C(NO)C1(S(=O)(=O)c2ccc(OCCCc3nc(-c4ccc(OC(F)(F)F)cc4)no3)cc2)CCN(C2CC2)CC1 [Example 51, Hydrochloride]

1: < 5.00; 2: < 5.00; 3: 6.16

For each listed entry, give its pKi.
1. CCN1CCC(C(=O)NO)(S(=O)(=O)c2ccc(OCCCc3nc(-c4ccc(OC(F)(F)F)cc4)no3)cc2)CC1 [Example 41, Hydrochloride]
2. COCCN1CCC(C(=O)NO)(S(=O)(=O)c2ccc(OCCCc3nc(-c4ccc(OC(F)(F)F)cc4)no3)cc2)CC1 [Example 42]
3. CCN1CCC(C(=O)NO)(S(=O)(=O)c2ccc(OCCCc3cccc(-c4ccccc4)c3)cc2)CC1 [Example 46]

1. < 5.00
2. < 5.00
3. < 5.00

For each listed entry, give its pKi.
1. COCCN1CCC(C(=O)NO)(S(=O)(=O)c2ccc(OCCCc3cccc(-c4ccc(Cl)cc4)c3)cc2)CC1 [Example 50]
2. COCCN1CCC(C(=O)NO)(S(=O)(=O)c2ccc(OCCCc3cccc(-c4ccc(F)c(F)c4)c3)cc2)CC1 [Example 52]

1. < 5.00
2. < 5.00
